Values compiled from the supplement of paper PMC9732359.

- assay details: protein stability index of a GFP-peptide fusion (yeast GPS) (PSI 1-4); higher = more stable; sorted into four equal gates, so the index is relative within each strain
- condition details: pdr5∆

>  <sequence string>
VPMKEENLEESFLSKHA [SSN2]

>  <protein stability index>
3.69

$$$$
>  <sequence string>
QNGQQPPTTSNLIIFLY [YML103C/NUP188]

>  <protein stability index>
2.78

$$$$
>  <sequence string>
VDINRLKKGEVSLGTSI [PRE3]

>  <protein stability index>
1.55

$$$$
>  <sequence string>
RQLTSMEFSNLYKEFFN [NUT1]

>  <protein stability index>
2.59

$$$$
>  <sequence string>
SKNAERKWAARAASAKI [RPS8A]

>  <protein stability index>
3.21

$$$$
>  <sequence string>
LSEYLTKFQTTDRESYP [YCS4]

>  <protein stability index>
3.28

$$$$
>  <sequence string>
LPYERHMISQEGIKETQ [SWI1]

>  <protein stability index>
1.23

$$$$
